Test system: giant foxtail (Setaria faberii)
Assay: Test A preemergence
Type: in vivo
Conditions: Setaria faberi, pre-emergence, 240 h, Preemergence, 31 g ai/ha; 0 to 100 scale (0 no effect, 100 complete control); read-out: Plant response rating, Foxtail, Giant
Items are presented alongside their recorded pest or weed control at 31 g/ha.
recorded metric: pest or weed control at 31 g/ha (%)

> print(dat)
                             molecule.smiles                      test.target  quantity.unit  result.value
 1  Cc1cc(F)cc([C@H]2CN(C)C(=O)[C@@H]2C(=O)Nc2cccc(F)c2C#N)c1  giant foxtail (Setaria faberii)              %            80
 2  Cc1cc([C@H]2CN(C)C(=O)[C@@H]2C(=O)Nc2ccccc2F)cc(C)c1C  giant foxtail (Setaria faberii)              %            90
 3  CN1CC[C@H](c2cccc(OC(F)(F)F)c2)[C@@H](C(=O)Nc2ccccc2C(F)(F)F)C1=O  giant foxtail (Setaria faberii)              %             0
 4  CN1CC[C@H](c2cccc(OC(F)(F)F)c2)[C@@H](C(=O)Nc2ccc(F)c(F)c2F)C1=O  giant foxtail (Setaria faberii)              %            70
 5  CN1CC[C@H](c2ccc3c(c2)OC(F)(F)O3)[C@@H](C(=O)Nc2ccccc2C(F)(F)F)C1=O  giant foxtail (Setaria faberii)              %             0
 6  CN1CC[C@H](c2ccc3c(c2)OC(F)(F)O3)[C@@H](C(=O)Nc2ccc(F)c(F)c2F)C1=O  giant foxtail (Setaria faberii)              %            70
 7  Cc1oncc1NC(=O)[C@H]1C(=O)N(C)C[C@@H]1c1cc(F)cc(F)c1  giant foxtail (Setaria faberii)              %            20
 8  Cc1cc([C@H]2CN(C)C(=O)[C@@H]2C(=O)Nc2cccc(F)c2F)cc(C)c1C  giant foxtail (Setaria faberii)              %            90
 9  CN1CC[C@H](c2ccc3c(c2)OC(F)(F)O3)[C@@H](C(=O)Nc2cccc(F)c2F)C1=O  giant foxtail (Setaria faberii)              %            80
10  O=C(Nc1cccc(F)c1F)[C@H]1C(=O)N(O)CC[C@@H]1c1ccccc1  giant foxtail (Setaria faberii)              %             0
